# STUDY TARGET: T1, human MCP-1 (human, UniProt P13500 24-99)
# T1 construct: also called hMCP-1; huMCP-1
# ASSAY OVERVIEW: ELISA on plate-coated human MCP-1, anti-human IgG-HRP; y axis unlabelled, OD 405 nm per paragraph 382
# Protocol: Binding specificities of chimeric 11K2 and the four versions of humanized 11K2 (H1-L1, H1-L2, H2-L1, and H2-L2) were determined by ELISA, according to the protocol described in Example 1. ELISA plates (Corning, Inc. Cat#3369) were coated with 50 ng MCP-1 per well overnight at 4° C. Plates were washed then blocked with PBS/5% milk for 1.5 hrs at 25° C. Another wash was followed by incubation with the 11K2 mAbs (or 3G9 isotype control) at the concentrations indicated for 1 hr at 25° C. […]
QUANTITY NAME: EC50 (read off the curve)

# BINDER, EC50 (read off the curve)
measured = [
    ("humanized 11K2 H2-L1 (antibody, human IgG1, kappa, V domains shown, human IgG1 kappa) VH: QVQLVQSGAEVKKPGSSVKVSCKASGLTISDTYMHWVRQAPGQGLEWMGRIDPANGNTKFDPKFQGRVTITADTSTSTAYMELSSLRSEDTAVYYCARGVFGFFDYWGQGTTVTVSS VL: DIQMTQSPSSLSASVGDRVTITCKATEDIYNRLAWYQQKPGKAPKLLISGATSLETGVPSRFSGSGSGKDYTLTISSLQPEDFATYYCQQFWSAPYTFGGGTKVEIKR", "~20 ng/mL"),
]

Please examine the following record next.
**Query** Retrieve EC50 (read off the curve) measured for humanized 11K2 H1-L1 (antibody, human IgG1, kappa, V domains shown, human IgG1 kappa; also called hu11K2) VH: QVQLVQSGAEVKKPGSSVKVSCKASGLNIKDTYMHWVRQAPGQGLEWIGRIDPANGNTKFDPKFQGRATITADTSTSTAYMELSSLRSEDTAVYYCARGVFGFFDYWGQGTTVTVSS VL: DIQMTQSPSSLSASVGDRVTITCKATEDIYNRLAWYQQKPGKAPKLLISGATSLETGVPSRFSGSGSGKDYTLTISSLQPEDFATYYCQQFWSAPYTFGGGTKVEIKR and print it.
**Result** ~20 ng/mL

FYI, the data here is from patent US20070134236A1.
